System: Aspergillus fumigatus
molecules and their reported MIC
Answer with a number only, understood to be in µg/mL.

Recorded results for 4 molecules are shown here.
Any idea what its MIC is? The molecule is Cc1ccc(CC(C)(C)C(O)(Cn2cncn2)Cn2cncn2)cc1
4

Query (molecule): CC(C)(Cc1ccc(Cl)cc1Cl)C(O)(Cn1cncn1)Cn1cncn1 ; field requested: MIC
32

For CC(C)(CSc1ccc(Cl)cc1)C(O)(Cn1cncn1)Cn1cncn1 , what is its reported MIC?
32

What measured MIC goes with CC(C)(Oc1ccc(Cl)cc1)C(O)(Cn1cncn1)Cn1cncn1 ?
64

Now examine the next entry.
I'd like to know its MIC. The molecule in question is CC(C)(Cc1ccc(Cl)cc1)C(O)(Cn1cncn1)Cn1cncn1
4
